Test system: EGFR Del19/T790M/C797S (H1975-clone #28 cells)
Assay: EGFR degradation HTRF assay in H1975-clone #28 cells
Format: cell-based
Conditions: H1975-clone #28(Del19/T790M/C797S) cells, 16 h treatment, Table 2; read-out: H1975 # 28 DTC DC50
Reported Metric: DC50 (nM)

1. CCc1ccc2c(P(C)(C)=O)c(Nc3nc(Nc4cc(CC)c(N5CCC(N6CCN(C(=O)[C@@H]7CCN(c8cc(F)c([C@H]9CCC(=O)NC9=O)c(F)c8)C7)CC6)CC5)cc4OC)ncc3Br)ccc2n1
2. CCc1cc(Nc2ncc(Br)c(Nc3ccc4nc(C)ccc4c3P(C)(C)=O)n2)c(OC)cc1N1CCC(N2CCN(C(=O)[C@@H]3CCN(c4ccc([C@H]5CCC(=O)NC5=O)cc4)C3)CC2)CC1
3. CCc1cc(Nc2ncc(Br)c(Nc3ccc4nc(C)ccc4c3P(C)(C)=O)n2)c(OC2CC2)cc1N1CCC(N2CCN(CCc3cc(F)c([C@H]4CCC(=O)NC4=O)c(F)c3)CC2)CC1
Which order do the items above take when sorted by DC50 from high to low? Provide your answer as the labels ordered per the instruction.
1, 3, 2

* * *

Target: BTK (TMD-8 cells) (Homo sapiens (Human))
Sequence (Q06187 whole entry): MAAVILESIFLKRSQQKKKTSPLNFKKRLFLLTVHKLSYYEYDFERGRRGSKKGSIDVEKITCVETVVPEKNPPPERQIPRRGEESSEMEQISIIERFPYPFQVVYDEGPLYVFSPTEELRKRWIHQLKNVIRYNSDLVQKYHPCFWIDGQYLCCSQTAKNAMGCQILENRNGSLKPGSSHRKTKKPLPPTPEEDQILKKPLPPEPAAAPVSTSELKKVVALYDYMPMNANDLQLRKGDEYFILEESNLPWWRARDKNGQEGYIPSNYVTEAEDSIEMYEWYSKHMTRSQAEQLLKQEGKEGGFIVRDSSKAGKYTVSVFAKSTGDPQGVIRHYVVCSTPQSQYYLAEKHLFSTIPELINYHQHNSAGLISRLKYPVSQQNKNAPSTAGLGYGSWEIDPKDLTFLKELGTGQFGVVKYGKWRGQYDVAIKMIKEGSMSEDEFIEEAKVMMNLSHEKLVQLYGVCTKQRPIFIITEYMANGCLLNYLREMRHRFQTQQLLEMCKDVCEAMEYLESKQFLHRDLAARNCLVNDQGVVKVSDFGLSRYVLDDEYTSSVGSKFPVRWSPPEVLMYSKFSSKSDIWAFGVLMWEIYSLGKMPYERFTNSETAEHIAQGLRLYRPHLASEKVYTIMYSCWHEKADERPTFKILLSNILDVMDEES
Experiment: BTK degradation HTRF assay in TMD-8 cells (Test Example 3)
Type: cell-based
Settings: 6 h treatment, Table 5
Reported Metric: DC50 (nM)

# count of solved cases: 2
>>> value_reported("Cc1c(C(=O)Nc2cscn2)ccc(-c2nn3c(c2C(N)=O)Nc2ccc(N4CCN(CCc5cc(F)c([C@H]6CCC(=O)NC6=O)c(F)c5)CC4)cc2CC3)c1F [Example B38]")
1.7
>>> value_reported("Cc1cccc(NC(=O)c2ccc(-c3nn4c(c3C(N)=O)Nc3ccc(N5CCN(CCc6cc(F)c([C@H]7CCC(=O)NC7=O)c(F)c6)CC5)cc3CC4)c(F)c2C)n1 [Example B35]")
2.32

I. Cc1cc(-c2cc(Nc3cccc(N4CCN(CC5CCN(c6ccc(N7CCC(=O)NC7=O)cc6)CC5)CC4)c3)ncn2)c(F)cc1[C@@H](C)NC(=O)c1nc(C(C)(C)C)no1 [Example C39]
II. Cc1cc(-c2cc(Nc3ccc(N4CCN(CCc5cc(F)c([C@H]6CCC(=O)NC6=O)c(F)c5)CC4)cn3)ncn2)ccc1[C@@H](C)NC(=O)c1nc(C(C)(C)C)no1 [Example C41]
Which entry has a larger number for DC50, I or II ? Reply with the label of the item you choose.
I
(I: 242 nM, II: 2.73 nM)

* * *

Molecular target: EGFR L858R/T790M/C797S (BaF3-LTC cells) (Homo sapiens (Human), UniProt P00533, C797S/L858R/T790M)
Sequence (P00533 25-1210 T790M/C797S/L858R): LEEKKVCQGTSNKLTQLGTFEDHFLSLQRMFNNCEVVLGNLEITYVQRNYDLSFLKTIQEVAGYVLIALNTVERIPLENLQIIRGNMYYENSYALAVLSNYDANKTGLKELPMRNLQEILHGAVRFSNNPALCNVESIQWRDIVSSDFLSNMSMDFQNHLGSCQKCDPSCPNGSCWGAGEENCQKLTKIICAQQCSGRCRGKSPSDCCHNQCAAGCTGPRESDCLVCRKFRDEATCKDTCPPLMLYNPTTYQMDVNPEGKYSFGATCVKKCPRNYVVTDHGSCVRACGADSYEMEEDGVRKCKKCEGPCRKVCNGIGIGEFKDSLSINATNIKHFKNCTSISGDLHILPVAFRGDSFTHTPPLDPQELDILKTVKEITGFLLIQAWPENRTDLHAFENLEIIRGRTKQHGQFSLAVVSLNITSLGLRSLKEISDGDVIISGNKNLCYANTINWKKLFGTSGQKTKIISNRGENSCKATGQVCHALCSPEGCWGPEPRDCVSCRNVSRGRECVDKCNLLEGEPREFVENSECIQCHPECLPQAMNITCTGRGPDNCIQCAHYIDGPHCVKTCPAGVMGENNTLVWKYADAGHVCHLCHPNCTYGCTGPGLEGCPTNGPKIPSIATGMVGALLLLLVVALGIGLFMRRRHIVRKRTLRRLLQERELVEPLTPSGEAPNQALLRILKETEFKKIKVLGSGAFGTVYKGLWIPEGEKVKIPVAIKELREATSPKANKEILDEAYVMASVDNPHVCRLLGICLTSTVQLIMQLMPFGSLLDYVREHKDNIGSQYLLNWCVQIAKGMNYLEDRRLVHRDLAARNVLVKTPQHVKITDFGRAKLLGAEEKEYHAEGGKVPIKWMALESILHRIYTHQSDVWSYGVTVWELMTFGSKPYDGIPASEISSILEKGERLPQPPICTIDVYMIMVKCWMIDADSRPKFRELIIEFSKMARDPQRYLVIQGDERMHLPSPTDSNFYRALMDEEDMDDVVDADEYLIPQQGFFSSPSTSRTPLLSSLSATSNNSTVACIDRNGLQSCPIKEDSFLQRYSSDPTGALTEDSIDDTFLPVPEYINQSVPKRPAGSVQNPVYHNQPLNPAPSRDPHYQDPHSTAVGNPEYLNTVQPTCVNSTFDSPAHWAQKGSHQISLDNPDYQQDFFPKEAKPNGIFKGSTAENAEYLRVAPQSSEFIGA
Assay: EGFR degradation HTRF assay in BaF3-LTC cells
Format: cell-based
Settings: 16 h treatment, Table 1, read-out: LTC DC50
Method: BaF3-LTC(L858R/T790M/C797S) and BaF3-DTC(Del19/T790M/C797S) cells are treated with compounds diluted in 0.2% DMSO cell culture medium and incubate for 16 h, 37° C., 5% CO2, H1975- #28 cells are treated with compounds diluted in 0.2% DMSO cell culture medium on day 2, incubate for 16 h, 37° C., 5% CO2. the final concentration of compounds in all assay is start with 10 uM, 5-fold dilution, total 8 doses were included. […]
Reported Metric: DC50 (nM)

1. CCc1cc(Nc2ncc(Br)c(Nc3ccc4nccnc4c3P(C)(C)=O)n2)c(OC)cc1N1CCC(N2CCN(CCc3cc(F)c(C4CCC(=O)NC4=O)c(F)c3)CC2)CC1 (stereo not shown) [Example 18]
2. CCc1cc(Nc2ncc(Br)c(Nc3ccc4nccnc4c3P(C)(C)=O)n2)c(OC)cc1N1CCC(N2CCN(CCc3cc(F)c([C@@H]4CCC(=O)NC4=O)c(F)c3)CC2)CC1 [Example 17]
3. CCc1cc(Nc2ncc(Br)c(Nc3ccc4nccnc4c3P(C)(C)=O)n2)c(OC)cc1N1CCC(N2CCN(CCc3ccc(C4CCC(=O)NC4=O)cc3)CC2)CC1 (stereo not shown) [Example 19]
4. CCc1cc(Nc2ncc(Br)c(Nc3ccc4nccnc4c3P(C)(C)=O)n2)c(OC)cc1N1CCC(N2CCN(CCc3cc(F)c([C@H]4CCC(=O)NC4=O)c(F)c3)CC2)CC1 [Example 16]
Which order do the items above take when sorted by DC50 from high to low? Provide your answer as the labels ordered per the instruction.
2, 3, 1, 4

* * *

Test system: EGFR Del19/T790M/C797S (BaF3-DTC cells)
Assay: EGFR degradation HTRF assay in BaF3-DTC cells
Format: cell-based
Settings: 16 h treatment, Table 1
Reported Metric: DC50 (nM)

>>> value_reported("CCc1cc(Nc2ncc(Br)c(Nc3ccc4nccnc4c3P(C)(C)=O)n2)c(OC)cc1N1CCC(N2CCN(CCc3cc(F)c([C@@H]4CCC(=O)NC4=O)c(F)c3)CC2)CC1")
6.75

1. CCc1cc(Nc2ncc(Br)c(Nc3ccc4nccnc4c3P(C)(C)=O)n2)c(OC)cc1N1CCC(N2CCN(CCc3ccc(C4CCC(=O)NC4=O)cc3)CC2)CC1 (stereo not shown)
2. CCc1cc(Nc2ncc(Br)c(Nc3ccc4nccnc4c3P(C)(C)=O)n2)c(OC)cc1N1CCC(N2CCN(CCc3cc(F)c(C4CCC(=O)NC4=O)c(F)c3)CC2)CC1 (stereo not shown)
3. CCc1cc(Nc2ncc(Br)c(Nc3ccc4nccnc4c3P(C)(C)=O)n2)c(OC)cc1N1CCC(N2CCN(CCc3cc(F)c([C@H]4CCC(=O)NC4=O)c(F)c3)CC2)CC1
Write the entries in order, lowest recorded DC50 first. Provide your answer as the labels ordered per the instruction.
3, 2, 1
